Numbers sourced from PubChem BioAssay (NCI).

- Test system: T-47D breast
- PROTOCOL_NOTES: NCI tumour cell line growth inhibition, 48 h
REPORTED_PROPERTY: GI50

A selection of reference data follows.
1) COc1cc(/C=C2\COc3ccc(O)c(O)c3C2=O)cc(OC)c1    1450 nM
2) Nc1ccc(/C=N/Nc2ccnc3c(N)cccc23)c2cccnc12    2270 nM
3) C[C@@H]1C=C2C(=O)O[C@@H]3CC[C@H](C1)[C@]23O    3020 nM
4) COc1ccc2c(c1)CC[C@@H]1[C@@H]2CC[C@]2(C)C(c3ccco3)=C(C=O)C[C@@H]12    18800 nM
5) CCCN(CCC)c1ccc(/C=N/NC(=O)c2cccnc2)c(Cl)c1    1070 nM

Hi! Can you tell me GI50 for each of these compounds?
1. NS(=O)(=O)c1ccc(N2N=C3c4ccccc4CC3C2c2ccc(Cl)cc2)cc1 (centres undefined)
2. COc1ccc2c(c1)CCC1C2CC[C@]2(C)/C(=N/OC(=O)Cc3ccccc3)CCC12 (some centres undefined)
3. NCCC(O)(P(=O)(O)O)P(=O)(O)O
4. CCC(C)C(NC(=O)C1CCCN1C(=O)C(NC(=O)C(C)N)C(C)C)C(N)=O (centres undefined)
5. NS(=O)(=O)c1ccc(CCN=C=S)cc1
6. CCn1cnc2c(Nc3cccc(Cl)c3)nc(N[C@@H]3CCCC[C@@H]3N)nc21
7. CCOC(=O)c1c(C(F)(F)F)n([O-])c2ccc(OC)cc2[n+]1=O

## Result
1. 32900 nM
2. 19500 nM
3. > 100000 nM
4. > 100000 nM
5. 638 nM
6. 1980 nM
7. 2600 nM

Hi! Can you tell me GI50 for each of these compounds?
1. COc1ccc(-c2ccc(C3CC(c4ccc(Cl)cc4)=NN3)o2)c([N+](=O)[O-])c1 (centres undefined)
2. COc1cc(C(=O)c2cc3c(cc2C)OCO3)cc(OC)c1OC

## Result
["> 100000 nM", "923 nM"]
